- TARGET OF ASSAY: Aurora2 (Aurora-A) (Homo sapiens, UniProt O14965)
- Construct: Aurora-A: the full length recombinant protein including an N-terminal poly-histidine tail has been expressed in E. coli; poly-histidine (N); made in house; host or cells: E. coli
- Sequence (O14965 whole entry): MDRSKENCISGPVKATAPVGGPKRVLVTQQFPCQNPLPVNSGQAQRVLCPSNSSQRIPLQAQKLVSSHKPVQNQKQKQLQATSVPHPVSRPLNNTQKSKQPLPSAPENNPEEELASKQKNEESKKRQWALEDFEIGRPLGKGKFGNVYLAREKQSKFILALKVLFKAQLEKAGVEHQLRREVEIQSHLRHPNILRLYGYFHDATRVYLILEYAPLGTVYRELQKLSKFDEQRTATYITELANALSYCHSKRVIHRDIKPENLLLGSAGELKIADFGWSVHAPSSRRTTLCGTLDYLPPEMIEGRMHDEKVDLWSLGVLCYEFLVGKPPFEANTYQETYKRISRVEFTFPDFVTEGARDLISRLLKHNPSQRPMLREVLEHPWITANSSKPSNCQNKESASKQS
- ASSAY COMMENT: Aurora 2 (Aurora A) kinase radioactivity scintillation assay using nickel chelate Flash plates
- Assay type: biochemical
- MEASUREMENT PARAMETERS: 10 nM Aurora-A, 500 nM NuMA substrate, 1 μM ATP with [33P] ATP, 10 mM MgCl2, 30 minutes, 37° C.
Where a name gives a salt, the structure may show the parent alone.
# log10 IC50 per record follows
QUANTITY KIND: log10 IC50 (log10 of the value in nM)

INSERT INTO assay_data (compound, reported_result) VALUES
  ('Cc1ccc2[nH]c(Sc3ccc(C4C5=C(CCCC5=O)Nc5n[nH]cc54)o3)nc2c1 (stereo not drawn)', 1.49),
  ('Cc1noc(C)c1C(=O)N1CC(=O)C2=C(C1)Nc1n[nH]cc1C2c1cccc(Oc2ccc(Cl)cc2)c1 (stereo not drawn)', 3.87),
  ('O=C1CC(c2ccco2)CC2=C1C(c1ccc(Sc3nc4ccccc4[nH]3)o1)c1c[nH]nc1N2 (stereo not drawn)', 1.36),
  ('Cc1ccc2[nH]c(Sc3ccc(C4C5=C(CNCC5=O)Nc5n[nH]cc54)o3)nc2c1 (stereo not drawn)', 2.27),
  ('O=C1CCCC2=C1C(c1ccc(COc3ccc(Cl)c(Cl)c3)o1)c1c[nH]nc1N2 (stereo not drawn)', 2.46),
  ('COc1ccccc1C1CC(=O)C2=C(C1)Nc1n[nH]cc1C2c1ccc(Sc2nc3ccccc3[nH]2)o1 (stereo not drawn)', 2.13),
  ('O=C1CCCC2=C1C(c1ccc(Sc3nc4cc(OC(F)F)ccc4[nH]3)o1)c1c[nH]nc1N2 (stereo not drawn)', 1.66),
  ('Cn1c(-c2ccc(Cl)cc2)cnc1Sc1ccc(C2C3=C(CNCC3=O)Nc3n[nH]cc32)o1 (stereo not drawn)', 3.99),
  ('Cn1c(-c2ccc(Cl)cc2)cnc1Sc1ccc(C2C3=C(CCCC3=O)Nc3n[nH]cc32)o1 (stereo not drawn)', 3.32),
  ('Cc1c[nH]c(Sc2ccc(C3C4=C(CC(C)(C)CC4=O)Nc4n[nH]cc43)o2)n1 (stereo not drawn)', 2.19),
  ('O=C1CCCC2=C1C(c1ccc(-c3cccc(Cl)c3)o1)c1c[nH]nc1N2 (stereo not drawn)', 3.38),
  ('CCOC(=O)c1[nH]cc2c1NC1=C(C(=O)CNC1)C2c1ccc(Sc2nc3cc(F)ccc3[nH]2)o1 (stereo not drawn) [Example 149, hydrochloride]', 1.74),
  ('CCOC(=O)c1[nH]cc2c1NC1=C(C(=O)CNC1)C2c1ccc(Sc2nc3cc4c(cc3[nH]2)OC(F)(F)O4)o1 (stereo not drawn) [Example 141, hydrochloride]', 1.94),
  ('CCOC(=O)c1[nH]cc2c1NC1=C(C(=O)CCC1)C2c1ccc(Sc2nc3cc(O)ccc3[nH]2)o1 (stereo not drawn)', 2.55),
  ('O=C1CNCC2=C1C(c1cccc(NC(=O)c3ccc(Cl)cc3)c1)c1c[nH]nc1N2 (stereo not drawn)', 2.80);
